- assay-protocol: Inhibition of recombinant full-length Neisseria gonorrhoeae N-terminal His6-tagged GCYH1B expressed in Escherichia coli BL21 (DE3) using GTP as substrate incubated for 50 to 60 mins by fluorescence based assay

mol: Nc1nc2c([nH]c(=O)n2[C@@H]2O[C@H](CO[P@@](=O)(O)O[P@@](=O)(O)OP(=O)(O)O)[C@@H](O)[C@H]2O)c(=O)[nH]1
Ki, nM: 150
